Target: Jak2 (UniProt O60674)
Sequence (O60674 whole entry, looked up): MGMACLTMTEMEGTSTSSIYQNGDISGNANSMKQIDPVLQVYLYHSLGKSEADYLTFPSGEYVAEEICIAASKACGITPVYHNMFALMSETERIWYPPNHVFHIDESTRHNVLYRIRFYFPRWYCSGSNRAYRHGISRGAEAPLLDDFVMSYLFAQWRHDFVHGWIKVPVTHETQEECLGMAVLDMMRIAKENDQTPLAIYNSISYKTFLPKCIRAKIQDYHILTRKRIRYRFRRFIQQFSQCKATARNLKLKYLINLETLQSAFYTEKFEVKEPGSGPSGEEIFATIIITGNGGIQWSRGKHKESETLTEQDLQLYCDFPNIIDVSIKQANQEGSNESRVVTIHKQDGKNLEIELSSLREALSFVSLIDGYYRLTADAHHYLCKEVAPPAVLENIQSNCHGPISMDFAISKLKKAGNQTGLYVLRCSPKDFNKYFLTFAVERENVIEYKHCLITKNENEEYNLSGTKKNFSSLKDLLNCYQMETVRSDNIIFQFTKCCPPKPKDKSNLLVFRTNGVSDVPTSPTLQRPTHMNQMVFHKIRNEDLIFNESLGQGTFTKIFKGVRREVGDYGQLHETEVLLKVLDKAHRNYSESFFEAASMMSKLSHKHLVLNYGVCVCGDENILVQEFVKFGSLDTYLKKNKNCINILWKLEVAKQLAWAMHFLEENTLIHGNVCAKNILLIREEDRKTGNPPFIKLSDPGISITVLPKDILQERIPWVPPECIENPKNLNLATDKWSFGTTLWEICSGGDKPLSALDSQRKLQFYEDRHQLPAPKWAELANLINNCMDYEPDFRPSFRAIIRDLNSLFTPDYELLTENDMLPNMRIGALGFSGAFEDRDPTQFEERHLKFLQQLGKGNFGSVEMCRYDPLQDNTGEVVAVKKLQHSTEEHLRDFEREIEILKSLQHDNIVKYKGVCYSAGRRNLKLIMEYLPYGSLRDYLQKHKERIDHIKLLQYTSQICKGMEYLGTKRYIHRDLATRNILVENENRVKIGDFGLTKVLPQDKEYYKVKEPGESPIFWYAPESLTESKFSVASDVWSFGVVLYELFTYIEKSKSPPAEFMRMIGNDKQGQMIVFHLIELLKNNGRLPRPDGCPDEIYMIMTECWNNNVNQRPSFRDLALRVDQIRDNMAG
Test: phosphorylation enrichment, bacterial display (enrichment ratio); higher = better substrate or ligand; peptides without Tyr show the background;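 note: 11-residue human phosphosite peptides and single-mutation variants displayed on the E. coli surface, counted by deep sequencing, each peptide's frequency after selection divided by its frequency in the unselected input library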;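 note: frequency after pTyr selection over input frequency; kinase dosed for 20-30% of maximal phosphorylation in three min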
The label depends only on phosphorylation enrichment: MET if it is at least 0.9, NOT MET if it is smaller.

Task item: Textbook exercise: given the entry CPYNLYAEQFS [HGD_Y40_L44F] , state whether its phosphorylation enrichment is greater than or equal to 0.9.
Reply: MET

---

This listing pairs sequences with measured phosphorylation enrichment.
Molecular target: Jak2 (UniProt O60674)
Test: phosphorylation enrichment, bacterial display (enrichment ratio); higher = better substrate or ligand; peptides without Tyr show the background

Biosequence | Tested Target | phosphorylation enrichment
SVVVSYEPPEV [TP53_Y220_P219S] | Jak2 (UniProt O60674) | 0.808
FKRAVYCIIGR [NUP93_Y391_YF] | Jak2 (UniProt O60674) | 0.772
DEGVNYFMSKG [FBXO8_Y156] | Jak2 (UniProt O60674) | 0.996
MVTSGYKAKMI [EFR3A_Y447_T451M] | Jak2 (UniProt O60674) | 0.695
CDDGKYVFVVT [RPS6KA3_Y488_Y483C_YF] | Jak2 (UniProt O60674) | 1.11
NFRTIYVNANE [KCNH2_Y475_T474I] | Jak2 (UniProt O60674) | 0.717
PTTKTYFPHFF [HBA1_Y43_D48Y_YF] | Jak2 (UniProt O60674) | 0.569
FLENFYDLKKD [MMP3_Y42_YF] | Jak2 (UniProt O60674) | 0.922
RRIHSYRGRLW [VHL_Y112_H115R] | Jak2 (UniProt O60674) | 0.68
SIIKDYFHRGA [GATM_Y203] | Jak2 (UniProt O60674) | 0.764

Readout phosphorylation enrichment for NTGNYYDLYGG [PTPN11_Y63_D61N] , test system Jak2 (UniProt O60674), was 2.42

Readout phosphorylation enrichment for SVKVFYKKCWS [EPHA7_Y202_YF] , test system Jak2 (UniProt O60674), was 1.21

Readout phosphorylation enrichment for GSRGKCSSGFR [ATM_Y332_Y332C] , test system Jak2 (UniProt O60674), was 0.532

Readout phosphorylation enrichment for TKAEKYVNKAK [PLCG1_Y991] , test system Jak2 (UniProt O60674), was 0.557

Readout phosphorylation enrichment for LKETGYVVERP [BCLAF1_Y466] , test system Jak2 (UniProt O60674), was 0.553

Readout phosphorylation enrichment for AIDDKYSRREE [SART1_Y685] , test system Jak2 (UniProt O60674), was 0.794

---

Biological target: FGFR3 (UniProt P22607)
Sequence (P22607 whole entry, looked up): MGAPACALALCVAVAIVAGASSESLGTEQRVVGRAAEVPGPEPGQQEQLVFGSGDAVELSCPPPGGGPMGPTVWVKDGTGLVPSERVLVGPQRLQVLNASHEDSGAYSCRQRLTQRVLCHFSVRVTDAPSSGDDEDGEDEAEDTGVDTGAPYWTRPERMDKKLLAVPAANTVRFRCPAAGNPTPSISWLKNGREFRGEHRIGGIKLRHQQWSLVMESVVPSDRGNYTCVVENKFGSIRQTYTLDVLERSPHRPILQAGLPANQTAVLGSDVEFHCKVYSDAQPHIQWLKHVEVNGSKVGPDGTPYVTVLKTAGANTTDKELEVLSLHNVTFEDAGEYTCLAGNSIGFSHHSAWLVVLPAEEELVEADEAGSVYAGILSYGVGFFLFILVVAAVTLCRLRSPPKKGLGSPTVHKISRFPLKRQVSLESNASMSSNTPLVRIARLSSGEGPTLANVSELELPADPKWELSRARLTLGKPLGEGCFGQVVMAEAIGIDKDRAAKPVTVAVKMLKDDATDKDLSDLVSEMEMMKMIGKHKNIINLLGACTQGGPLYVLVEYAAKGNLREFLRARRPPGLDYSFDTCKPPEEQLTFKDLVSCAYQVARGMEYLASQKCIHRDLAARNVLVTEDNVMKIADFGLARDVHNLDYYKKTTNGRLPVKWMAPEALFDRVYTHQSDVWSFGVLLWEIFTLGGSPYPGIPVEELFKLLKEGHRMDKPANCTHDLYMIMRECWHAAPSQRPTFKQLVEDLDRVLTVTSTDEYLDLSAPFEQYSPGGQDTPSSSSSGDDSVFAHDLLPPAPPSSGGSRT
Test: phosphorylation enrichment, bacterial display (enrichment ratio); higher = better substrate or ligand; peptides without Tyr show the background
The label depends only on phosphorylation enrichment: YES if it is at least 0.6, NO if it is smaller.

Check out these entries, answers already filled in.
Biosequence | Label Class
DLAGRYYALRS [CKB_Y173_K177R] | YES
LLREWYLPDPF [SIX3_Y225_Q227P_YF] | YES
IVKAYYVRARA [AIPL1_Y268] | NO
LDLPGYCPLRE [CCDC116_Y291] | YES
KLIMEYLPYGS [JAK2_Y931] | YES

Task item: Textbook exercise: given the entry FKRAVYCIIGR [NUP93_Y391_YF] , state whether its phosphorylation enrichment is greater than or equal to 0.6.
Reply: NO

Task item: Textbook exercise: given the entry EPGSLYGCGGG [ATM_Y2019_D2016G] , state whether its phosphorylation enrichment is greater than or equal to 0.6.
Reply: NO

Task item: Textbook exercise: given the entry PGAPAYCVLME [MYO5A_Y1245_R1246C] , state whether its phosphorylation enrichment is greater than or equal to 0.6.
Reply: YES

Task item: Textbook exercise: given the entry TEDELYQLSLQ [RASGRP2_Y378] , state whether its phosphorylation enrichment is greater than or equal to 0.6.
Reply: YES

Task item: Textbook exercise: given the entry LHNLFYQLEAE [PKP2_Y616_S615F] , state whether its phosphorylation enrichment is greater than or equal to 0.6.
Reply: YES

Task item: Textbook exercise: given the entry GLSSAYGDLTS [KRT8_Y427_G429D] , state whether its phosphorylation enrichment is greater than or equal to 0.6.
Reply: NO

Task item: Textbook exercise: given the entry VFPATYHPDHW [EFCAB12_Y544_YF] , state whether its phosphorylation enrichment is greater than or equal to 0.6.
Reply: NO
